Each item that follows carries a reported percent blocking.
- target: SARS-CoV spike RBD (R306-F527), C-terminal 6-His (SARS-CoV, UniProt P59594 306-527)
- assay comment: flow cytometry, blocking of binding to hACE-2 cells
recorded metric: percent blocking (%)

[[record]]
binder = "1035740 (antibody, V domains shown) VH: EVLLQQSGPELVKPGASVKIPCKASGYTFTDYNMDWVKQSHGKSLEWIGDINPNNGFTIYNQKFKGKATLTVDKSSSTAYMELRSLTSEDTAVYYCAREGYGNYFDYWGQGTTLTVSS VL: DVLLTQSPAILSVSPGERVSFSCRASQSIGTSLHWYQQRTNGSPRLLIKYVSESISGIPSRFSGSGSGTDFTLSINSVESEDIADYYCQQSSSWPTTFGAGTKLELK"
data_value = 98.8

[[record]]
binder = "1035211 (antibody, V domains shown) VH: QVQLQQSGAELARPGASVKMSCKASGYTFTNYTMHWVKQRPGQGLEWIGYINPSSGYTNYNQKFKDKATLTADKSSSTAYMQLSSLTSEDSAVYYCARRNPLYAMDYWGQGTSVTVSS VL: DIKMTQSPSSMYASLGERVTITCKASQDINSYLNWFQQKPGKSPKTLIYRANRLVDGVPSRFSGSGSGQDYSLTISSLEFEDMGIYYCLQYDEFPYTFGGGTKLEIK"
data_value = 0.1

[[record]]
binder = "1035716 (antibody, V domains shown) VH: EVLLQQSGPELVKPGASVKIPCKASGYTFTDYNMDWVKQSHGKSLEWIGDINPNNGGTIYNQKFKGKATLTVDKSSSTAYMELRSLTSEDTAVYYCAREGYGNYFDYWGQGTTLTVSS VL: DILLTQSPAILSVSPGERVSFSCRASQSIGTSIHWYQQRTNGSPRLLIKYASESISGIPSRFSGSGSGTDYTLSINSVESEDIADYYCQQSYSWPTTFGAGTKLELK"
data_value = 68.7

[[record]]
binder = "1035755 (antibody, V domains shown) VH: EVQLQQSGAELVRPGALVKLSCKASGFNIKDYYMHWVKQRPEQGLEWIGWIDPENGNSIYDPKFQGKASITADTSSNTAYLQLSSLTSEDTAVYYCATPSATSYFDYWGQGTTLTVSS VL: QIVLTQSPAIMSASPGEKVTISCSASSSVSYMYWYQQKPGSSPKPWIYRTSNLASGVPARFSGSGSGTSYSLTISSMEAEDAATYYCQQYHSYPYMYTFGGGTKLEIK"
data_value = 0

[[record]]
binder = "1035419 (antibody, V domains shown) VH: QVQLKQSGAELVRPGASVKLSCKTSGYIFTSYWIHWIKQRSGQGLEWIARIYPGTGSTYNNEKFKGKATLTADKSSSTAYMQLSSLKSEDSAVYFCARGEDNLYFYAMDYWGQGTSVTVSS VL: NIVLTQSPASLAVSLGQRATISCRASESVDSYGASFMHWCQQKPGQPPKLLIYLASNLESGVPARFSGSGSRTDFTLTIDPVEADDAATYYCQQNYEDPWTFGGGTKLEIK"
data_value = 44.1

[[record]]
binder = "1035414 (antibody, V domains shown) VH: QVQLKQSGAELVRPGASVKLSCKTSGYIFTSYWIHWVKQRSGQGLEWIARIYPGTGNTYYNEKFKGKATLTADKSSTTAYMQLSSLKSEDSAVYFCARGEDNLYYYAMDYWGQGTSVTVSS VL: NIVLTQSPASLAVSLGQRATISCRASESVDSYGTSFMHWYQQKPGQPPKLLIYLASNLESGVPASFSGSGSRTDFTLTIDPVEADDAATYYCQQNNEDPWTFGGGTKLEIK"
data_value = 0.4

